- Assay Overview: Half life in human plasma expressing CYP2C8*4 allele carrier polymorphism at 25 to 32 mg by LC/MS/MS analysis
- Type: ADME, organism-based
Quantity Measured: half-life (h)
Respond with the bare value in h.

Task: What value of measured half-life is listed for CCOc1nc2cccc(C(=O)O)c2n1Cc1ccc(-c2ccccc2-c2nnn[nH]2)cc1 ?
Output: 11.2

----------
- Assay Overview: AUC in women plasma treated with losartan at 50 mg by LC/MS/MS analysis
- Assay type: ADME, organism-based
- Setup Conditions: female, human
Quantity Measured: AUC (ng·h/mL)
Respond with the bare value in ng·h/mL.

Task: What value of measured AUC is listed for CCCCc1nc(Cl)c(C(=O)O)n1Cc1ccc(-c2ccccc2-c2nn[nH]n2)cc1 [CARBOXYLIC ACID METABOLITE] ?
Output: 2580

----------
- Assay Overview: AUC in human plasma expressing CYP2C9*1/*1 polymorphism at 25 to 32 mg by LC/MS/MS analysis
- Type: ADME, organism-based
Quantity Measured: AUC (ng·h/mL)
Respond with the bare value in ng·h/mL.

Task: What value of measured AUC is listed for CCOc1nc2cccc(C(=O)O)c2n1Cc1ccc(-c2ccccc2-c2nnn[nH]2)cc1 ?
Output: 3590

----------
- Assay Overview: Tmax in human plasma expressing CYP2C9*3 allele carrier polymorphism at 80 mg by LC/MS/MS analysis
- Format: ADME, organism-based
Quantity Measured: Tmax (h)
Respond with the bare value in h.

Task: What value of measured Tmax is listed for CCCc1nc2c(C)cc(-c3nc4ccccc4n3C)cc2n1Cc1ccc(-c2ccccc2C(=O)O)cc1 ?
Output: 1.1

----------
- Assay Overview: Tmax in human plasma expressing CYP2C8*3 allele carrier polymorphism at 80 mg by LC/MS/MS analysis
- Format: ADME, organism-based
Quantity Measured: Tmax (h)
Respond with the bare value in h.

Task: What value of measured Tmax is listed for CCCc1nc2c(C)cc(-c3nc4ccccc4n3C)cc2n1Cc1ccc(-c2ccccc2C(=O)O)cc1 ?
Output: 1

----------
- Assay Overview: AUC in human plasma expressing CYP2C9*3 allele carrier polymorphism at 25 to 32 mg by LC/MS/MS analysis
- Assay type: ADME, organism-based
Quantity Measured: AUC (ng·h/mL)
Respond with the bare value in ng·h/mL.

Task: What value of measured AUC is listed for CCOc1nc2cccc(C(=O)O)c2n1Cc1ccc(-c2ccccc2-c2nnn[nH]2)cc1 ?
Output: 3630

----------
- Assay Overview: Half life in human plasma expressing CYP2C8*3 allele carrier polymorphism at 25 to 32 mg by LC/MS/MS analysis
- Type: ADME, organism-based
Quantity Measured: half-life

Task: What value of measured half-life is listed for CCOc1nc2cccc(C(=O)O)c2n1Cc1ccc(-c2ccccc2-c2nnn[nH]2)cc1 ?
Output: 12 h

----------
- Assay Overview: Clearance in human plasma expressing CYP2C9*3 allele carrier polymorphism at 25 to 32 mg by LC/MS/MS analysis
- Assay type: ADME, organism-based
Quantity Measured: clearance (mL/min/kg)
Respond with the bare value in mL/min/kg.

Task: What value of measured clearance is listed for CCOc1nc2cccc(C(=O)O)c2n1Cc1ccc(-c2ccccc2-c2nnn[nH]2)cc1 ?
Output: 2.5

----------
- Assay Overview: AUC in human plasma expressing CYP2C8*2 allele carrier polymorphism at 80 mg by LC/MS/MS analysis
- Assay type: ADME, organism-based
Quantity Measured: AUC
Answer format reminder: number followed by unit.

Task: What value of measured AUC is listed for CCCc1nc2c(C)cc(-c3nc4ccccc4n3C)cc2n1Cc1ccc(-c2ccccc2C(=O)O)cc1 ?
Output: 3680 ng·h/mL
